# assay-notes: total protein half-life in vivo (active degradation + dilution); higher = more stable protein
# cond: wild type E. coli NCM3722; growth: C-lim chemostat; doubling time 6 h
Provide the recorded total protein half-life in vivo for the entries that follow.
Report the value in h with no unit label.

Briefly, total protein half-life in vivo measured for MNMKKLATLVSAVALSATVSANAMAKDTIALVVSTLNNPFFVSLKDGAQKEADKLGYNLVVLDSQNNPAKELANVQDLTVRGTKILLINPTDSDAVGNAVKMANQANIPVITLDRQATKGEVVSHIASDNVLGGKIAGDYIAKKAGEGAKVIELQGIAGTSAARERGEGFQQAVAAHKFNVLASQPADFDRIKGLNVMQNLLTAHPDVQAVFAQNDEMALGALRALQTAGKSDVMVVGFDGTPDGEKAVNDGKLAATIAQLPDQIGAKGVETADKVLKGEKVQAKYPVDLKLVVKQ : 6.14

Query MTIWVDADACPNVIKEILYRAAERMQMPLVLVANQSLRVPPSRFIRTLRVAAGFDVADNEIVRQCEAGDLVITADIPLAAEAIEKGAAALNPRGERYTPATIRERLTMRDFMDTLRASGIQTGGPDSLSQRDRQAFAAELEKWWLEVQRSRG [P0A8D3] yields total protein half-life in vivo of 4.33

Per the record, MNRIEHYHDWLRDAHAMEKQAESMLESMASRIDNYPELRARIEQHLSETKNQIVQLETILDRNDISRSVIKDSMSKMAALGQSIGGIFPSDEIVKGSISGYVFEQFEIACYTSLLAAAKNAGDTASIPTIEAILNEEKQMADWLIQNIPQTTEKFLIRSETDGVEAKK has total protein half-life in vivo of 5.22

###

# assay-notes: total protein half-life in vivo (active degradation + dilution); higher = more stable protein
# cond: wild type E. coli NCM3722; growth: C-lim chemostat; doubling time 6 h
endpoint-label: total protein half-life in vivo
Be sure to follow the number with its unit.

For this sequence ( MNPIVINRLQRKLGYTFNHQELLQQALTHRSASSKHNERLEFLGDSILSYVIANALYHRFPRVDEGDMSRMRATLVRGNTLAELAREFELGECLRLGPGELKSGGFRRESILADTVEALIGGVFLDSDIQTVEKLILNWYQTRLDEISPGDKQKDPKTRLQEYLQGRHLPLPTYLVVQVRGEAHDQEFTIHCQVSGLSEPVVGTGSSRRKAEQAAAEQALKKLELE [P0A7Y0] ), measured total protein half-life in vivo is 5.54 h

// field: total protein half-life in vivo; key: MPKKNEAPASFEKALSELEQIVTRLESGDLPLEEALNEFERGVQLARQGQAKLQQAEQRVQILLSDNEDASLTPFTPDNE [P0A8G9] ; value = 6.16 h

// recorded total protein half-life in vivo for MQTKKNEIWVGIFLLAALLAALFVCLKAANVTSIRTEPTYTLYATFDNIGGLKARSPVSIGGVVVGRVADITLDPKTYLPRVTLEIEQRYNHIPDTSSLSIRTSGLLGEQYLALNVGFEDPELGTAILKDGDTIQDTKSAMVLEDLIGQFLYGSKGDDNKNSGDAPAAAPGNNETTEPVGTTK : 5.61 h

The sequence listed as MENQPKLNSSKEVIAFLAERFPHCFSAEGEARPLKIGIFQDLVDRVAGEMNLSKTQLRSALRLYTSSWRYLYGVKPGATRVDLDGNPCGELDEQHVEHARKQLEEAKARVQAQRAEQQAKKREAAATAGEKEDAPRRERKPRPTTPRRKEGAERKPRAQKPVEKAPKTVKAPREEQHTPVSDISALTVGQALKVKAGQNAMDATVLEITKDGVRVQLNSGMSLIVRAEHLVF shows total protein half-life in vivo equal to 4.51 h

Record MQKVVLATGNVGKVRELASLLSDFGLDIVAQTDLGVDSAEETGLTFIENAILKARHAAKVTALPAIADDSGLAVDVLGGAPGIYSARYSGEDATDQKNLQKLLETMKDVPDDQRQARFHCVLVYLRHAEDPTPLVCHGSWPGVITREPAGTGGFGYDPIFFVPSEGKTAAELTREEKSAISHRGQALKLLLDALRNG , field total protein half-life in vivo: 5.1 h

Form field total protein half-life in vivo, entry MKKIACLSALAAVLAFTAGTSVAATSTVTGGYAQSDAQGQMNKMGGFNLKYRYEEDNSPLGVIGSFTYTEKSRTASSGDYNKNQYYGITAGPAYRINDWASIYGVVGVGYGKFQTTEYPTYKHDTSDYGFSYGAGLQFNPMENVALDFSYEQSRIRSVDVGTWIAGVGYRF [P0A917] : 6.04 h

Measured total protein half-life in vivo, MVDKSQETTHFGFQTVAKEQKADMVAHVFHSVASKYDVMNDLMSFGIHRLWKRFTIDCSGVRRGQTVLDLAGGTGDLTAKFSRLVGETGKVVLADINESMLKMGREKLRNIGVIGNVEYVQANAEALPFPDNTFDCITISFGLRNVTDKDKALRSMYRVLKPGGRLLVLEFSKPIIEPLSKAYDAYSFHVLPRIGSLVANDADSYRYLAESIRMHPDQDTLKAMMQDAGFESVDYYNLTAGVVALHRGYKF [P0A887] : 4.67 h

Looking up MKCPVCHQGEMVSGIKDIPYTFRGRKTVLKGIHGLYCVHCEESIMNKEESDAFMAQVKAFRASVNAETVAPEFIVKVRKKLSLTQKEASEIFGGGVNAFSRYEKGNAQPHPSTIKLLRVLDKHPELLNEIR , I found its total protein half-life in vivo recorded as 1.07 h

###

# assay-notes: total protein half-life in vivo (active degradation + dilution); higher = more stable protein
# cond: wild type E. coli NCM3722; growth: C-lim chemostat; doubling time 6 h
endpoint-label: total protein half-life in vivo (h)
# number only, unit h dropped from output

Lab note: measured total protein half-life in vivo of MKKVLIAALIAGFSLSATAAETIRFATEASYPPFESIDANNQIVGFDVDLAQALCKEIDATCTFSNQAFDSLIPSLKFRRVEAVMAGMDITPEREKQVLFTTPYYDNSALFVGQQGKYTSVDQLKGKKVGVQNGTTHQKFIMDKHPEITTVPYDSYQNAKLDLQNGRIDGVFGDTAVVTEWLKDNPKLAAVGDKVTDKDYFGTGLGIAVRQGNTELQQKLNTALEKVKKDGTYETIYNKWFQK was 5.9

Form: sequence = MTNLNYQQTHFVMSAPDIRHLPSDTGIEVAFAGRSNAGKSSALNTLTNQKSLARTSKTPGRTQLINLFEVADGKRLVDLPGYGYAEVPEEMKRKWQRALGEYLEKRQSLQGLVVLMDIRHPLKDLDQQMIEWAVDSNIAVLVLLTKADKLASGARKAQLNMVREAVLAFNGDVQVETFSSLKKQGVDKLRQKLDTWFSEMQPVEETQDGE [P0A6P7] ; total protein half-life in vivo = 5.58

response.value for MTAPSQVLKIRRPDDWHLHLRDGDMLKTVVPYTSEIYGRAIVMPNLAPPVTTVEAAVAYRQRILDAVPAGHDFTPLMTCYLTDSLDPNELERGFNEGVFTAAKLYPANATTNSSHGVTSIDAIMPVLERMEKIGMPLLVHGEVTHADIDIFDREARFIESVMEPLRQRLTALKVVFEHITTKDAADYVRDGNERLAATITPQHLMFNRNHMLVGGVRPHLYCLPILKRNIHQQALRELVASGFNRVFLGTDSAPHARHRKESSCGCAGCFNAPTALGSYATVFEEMNALQHFEAFCSVNGPQFYGLPVNDTFIELVREEQQVAESIALTDDTLVPFLAGETVRWSVKQ (field: total protein half-life in vivo) = 5.64

###

Give total protein half-life in vivo for every item shown.
# assay-notes: total protein half-life in vivo (active degradation + dilution); higher = more stable protein
# cond: wild type E. coli NCM3722; growth: P-lim chemostat; doubling time 6 h
Respond with the bare value in h.

The sequence identified as MLARGKTNLKIEEIRMHKHHEIHRVKPLMPALCRIRQGKKVINWETHTLTVDNNQIILFPCGYEFYIENYPEAGLYLAEMLYLPIDLIESFQKLYTVTDQIRNKTSFFLPQNPELIYCWEQLKTSVSRGFSTKIQEHLAMGVLLSLGVNHVNHLLLSYSKQSLISRCYNLLLSEPGTKWTANKVARYLYISVSTLHRRLASEGVSFQSILDDVRLNNALSAIQTTVKPISEIARENGYKCPSRFTERFHNRFNITPREIRKASRE registered its total protein half-life in vivo at 3.65

// recorded total protein half-life in vivo for MKYDLIIIGSGSVGAAAGYYATRAGLNVLMTDAHMPPHQHGSHHGDTRLIRHAYGEGEKYVPLVLRAQTLWDELSRHNEEDPIFVRSGVINLGPADSTFLANVAHSAEQWQLNVEKLDAQGIMARWPEIRVPDNYIGLFETDSGFLRSELAIKTWIQLAKEAGCAQLFNCPVTAIRHDDDGVTIETADGEYQAKKAIVCAGTWVKDLLPELPVQPVRKVFAWYQADGRYSVKNKFPAFTGELPNGDQYYGFPAENDALKIGKHNGGQVIHSADERVPFAEVASDGSEAFPFLRNVLPGIGCCLYGAACTYDNSPDEDFIIDTLPGHDNTLLITGLSGHGFKFASVLGEIAADFAQDKKSDFDLTPFRLSRFQ : 5.55

total protein half-life in vivo reading for MDALSRLLMLNAPQGTIDKNCVLGSDWQLPHGAGELSVIRWHALTQGAAKLEMPTGEIFTLRPGNVVLLPQNSAHRLSHVDNESTCIVCGTLRLQHSARYFLTSLPETLFLAPVNHSVEYNWLREAIPFLQQESRSAMPGVDALCSQICATFFTLAVREWIAQVNTEKNILSLLLHPRLGAVIQQMLEMPGHAWTVESLASIAHMSRASFAQLFRDVSGTTPLAVLTKLRLQIAAQMFSRETLPVVVIAESVGYASESSFHKAFVREFGCTPGEYRERVRQLAP : 5.4

MIEFVYPHTQLVAGVDEVGRGPLVGAVVTAAVILDPARPIAGLNDSKKLSEKRRLALYEEIKEKALSWSLGRAEPHEIDELNILHATMLAMQRAVAGLHIAPEYVLIDGNRCPKLPMPAMAVVKGDSRVPEISAASILAKVTRDAEMAALDIVFPQYGFAQHKGYPTAFHLEKLAEHGATEHHRRSFGPVKRALGLAS yielded total protein half-life in vivo of 1.43

The recorded total protein half-life in vivo for entry MATNAKPVYKRILLKLSGEALQGTEGFGIDASILDRMAQEIKELVELGIQVGVVIGGGNLFRGAGLAKAGMNRVVGDHMGMLATVMNGLAMRDALHRAYVNARLMSAIPLNGVCDSYSWAEAISLLRNNRVVILSAGTGNPFFTTDSAACLRGIEIEADVVLKATKVDGVFTADPAKDPTATMYEQLTYSEVLEKELKVMDLAAFTLARDHKLPIRVFNMNKPGALRRVVMGEKEGTLITE [P0A7E9] equals 5.84

The reported value for MLNKLSLLLKDAGISLTDHQKNQLIAYVNMLHKWNKAYNLTSVRDPNEMLVRHILDSIVVAPYLQGERFIDVGTGPGLPGIPLSIVRPEAHFTLLDSLGKRVRFLRQVQHELKLENIEPVQSRVEEFPSEPPFDGVISRAFASLNDMVSWCHHLPGEQGRFYALKGQMPEDEIALLPEEYQVESVVKLQVPALDGERHLVVIKANKI [P0A6U5] in terms of total protein half-life in vivo is 5.87

total protein half-life in vivo reading for MAYFLDFDERALKEWRKLGSTVREQLKKKLVEVLESPRIEANKLRGMPDCYKIKLRSSGYRLVYQVIDEKVVVFVISVGKRERSEVYSEAVKRIL [P0C077] : 3.75

Given item MSHRDTLFSAPIARLGDWTFDERVAEVFPDMIQRSVPGYSNIISMIGMLAERFVQPGTQVYDLGCSLGAATLSVRRNIHHDNCKIIAIDNSPAMIERCRRHIDAYKAPTPVDVIEGDIRDIAIENASMVVLNFTLQFLEPSERQALLDKIYQGLNPGGALVLSEKFSFEDAKVGELLFNMHHDFKRANGYSELEISQKRSMLENVMLTDSVETHKARLHNAGFEHSELWFQCFNFGSLVALKAEDAA , the value recorded as its total protein half-life in vivo is 4.66

Per the records, this sequence ( MIIGNIHNLQPWLPQELRQAIEHIKAHVTAETPKGKHDIEGNRLFYLISEDMTEPYEARRAEYHARYLDIQIVLKGQEGMTFSTQPAGAPDTDWLADKDIAFLPEGVDEKTVILNEGDFVVFYPGEVHKPLCAVGAPAQVRKAVVKMLMA [P0AF96] ) has total protein half-life in vivo equal to 4.55

# total protein half-life in vivo (sequence: MHINIAWQDVDTVLLDMDGTLLDLAFDNYFWQKLVPETWGAKNGVTPQEAMEYMRQQYHDVQHTLNWYCLDYWSEQLGLDICAMTTEMGPRAVLREDTIPFLEALKASGKQRILLTNAHPHNLAVKLEHTGLDAHLDLLLSTHTFGYPKEDQRLWHAVAEATGLKAERTLFIDDSEAILDAAAQFGIRYCLGVTNPDSGIAEKQYQRHPSLNDYRRLIPSLM ) is 0.56

Form field total protein half-life in vivo, entry MRLTSKGRYAVTAMLDVALNSEAGPVPLADISERQGISLSYLEQLFSRLRKNGLVSSVRGPGGGYLLGKDASSIAVGEVISAVDESVDATRCQGKGGCQGGDKCLTHALWRDLSDRLTGFLNNITLGELVNNQEVLDVSGRQHTHDAPRTRTQDAIDVKLRA [P0AGK8] : 1.53

Recorded result, MIKQRTLKRIVQATGVGLHTGKKVTLTLRPAPANTGVIYRRTDLNPPVDFPADAKSVRDTMLCTCLVNEHDVRISTVEHLNAALAGLGIDNIVIEVNAPEIPIMDGSAAPFVYLLLDAGIDELNCAKKFVRIKETVRVEDGDKWAEFKPYNGFSLDFTIDFNHPAIDSSNQRYAMNFSADAFMRQISRARTFGFMRDIEYLQSRGLCLGGSFDCAIVVDDYRVLNEDGLRFEDEFVRHKMLDAIGDLFMCGHNIIGAFTAYKSGHALNNKLLQAVLAKQEAWEYVTFQDDAELPLAFKAPSAVLA [P0A725] , total protein half-life in vivo: 1.06
